Source: ChEMBL document CHEMBL1141284

# System: Zone of skin
# Test details: Permeability coefficient in human skin
Measured endpoint: log Kp
Give only the figure.

Record request: log Kp value, item Cc1c(N(C)C)c(=O)n(-c2ccccc2)n1C
-6.62

Report log Kp for CCCCC(=O)O[C@]1(C(=O)CO)[C@@H](C)C[C@H]2[C@@H]3CCC4=CC(=O)C=C[C@]4(C)[C@@]3(F)[C@@H](O)C[C@@]21C [BETAMETHASONE VALERATE] please.
-6.12

Give its log Kp value. Item: OCc1ccccc1
-5.49

Data request, read-out log Kp, for O=[N+]([O-])c1ccc(O)cc1
-5.81

Field request: log Kp | item: NCC(CC(=O)O)c1ccc(Cl)cc1 (stereo not given)
-8.14

Form field: reported log Kp of C[C@]12CC[C@@H]3c4ccc(O)cc4CC[C@H]3[C@@H]1CC[C@@H]2O
-5.84

For CCCCOCCO , what is its reported log Kp?
-6.41

So what's the measured log Kp for this one? Cc1ccc(C(C)C)c(O)c1
-4.83

Entry under review: C[C@]12C=CC(=O)C=C1CC[C@H]1[C@@H]3C[C@@H](O)[C@](O)(C(=O)CO)[C@@]3(C)C[C@H](O)[C@@]12F . Reported log Kp?
-8.95

Record request: log Kp value, item CC(=O)[C@@]1(O)CC[C@H]2[C@@H]3CCC4=CC(=O)CC[C@]4(C)[C@H]3CC[C@@]21C [HYDROXYPROGESTERONE]
-6.7

Any idea what log Kp was measured for CN1CCC[C@H]1c1cccnc1 ?
-5.35

// lookup log Kp for CN(C)CCC(c1ccc(Cl)cc1)c1ccccn1 (stereo not given)
-6.22

Can you look up the measured log Kp of CC(C)NCC(O)c1ccc(O)c(O)c1 (stereo not given) for me?
-8.25

So what's the measured log Kp for this one? CC(=O)Oc1ccccc1C(=O)O
-6.96

Tell me the measured log Kp of CCCCCCCC(=O)OCC(=O)[C@@]1(O)CC[C@H]2[C@@H]3CCC4=CC(=O)CC[C@]4(C)[C@H]3[C@@H](O)C[C@@]21C , please.
-4.77

Which log Kp is reported for this molecule? O=C(c1ccccc1)c1ccc2n1CCC2C(=O)O (stereo not given)
-5.38

What log Kp value was documented for this molecule, C[C@]12CC[C@H]3[C@@H](CCC4=CC(=O)CC[C@@]43C)[C@@H]1CC[C@@H]2C(=O)CO ?
-6.73

What measured log Kp goes with Cc1cc(=O)n(-c2ccccc2)n1C [ANTIPYRINE] ?
-7.72

Reported log Kp, molecule O=NN(CCO)CCO : ____
-8.81

Look at this molecule and give its reported log Kp. C=C(CC)C(=O)c1ccc(OCC(=O)O)c(Cl)c1Cl
-2.99
